system: HT-29 cells; assay: MTT cell viability assay HT-29; assay type: cell-based, human; conditions: Homo sapiens, HT-29, 48 h, mean ± SD
Observed property: EC50 (µM)

> print(dat)
                                   compound  readout.qualifier  recorded.number
1  COc1ccc(-c2cc(C(=O)Nc3cc(-c4c(-c5ccc(F)cc5)noc4C(C)C)ccn3)n3c2CN2C[C@@H](O)[C@@H](O)[C@@H]2C3)cc1 [31b]                  <                2
2  COc1ccc(-c2cc(C(=O)Nc3cc(-c4c(-c5ccc(F)cc5)noc4C(C)C)ccn3)n3c2CN2C[C@H](O)[C@H](O)[C@H]2C3)cc1 [31a]                  <                2
3  CC(C)c1onc(-c2ccc(F)cc2)c1-c1ccnc(NC(=O)c2cccn2C[C@H]2NC[C@H](O)[C@@H]2O)c1 [29c]                  =               24
4  COc1ccc(-c2cc(C(=O)Nc3cc(-c4c(-c5ccc(F)cc5)noc4C(C)C)ccn3)n(C[C@H]3NC[C@H](O)[C@@H]3O)c2)c(OC)c1 [29f]                  =              5.4
5  COc1ccc(-c2cc(C(=O)Nc3cc(-c4c(-c5ccc(F)cc5)noc4C(C)C)ccn3)n(CC3NCC(O)C3O)c2)cc1 (centres unmarked) [29d]                  =                8

###

# reported viability at 48 h, 20 µM; entries follow
assay: MTT cell viability assay MCF-7; type: cell-based, human; conditions: human, MCF-7 cells, 20 µM, mean ± SD
Observed property: viability at 48 h, 20 µM

> print(dat)
                                   molecule  result
1  COc1ccc(-c2cc(C(=O)Nc3cc(-c4c(-c5ccc(F)cc5)noc4C(C)C)ccn3)n(C)c2)cc1 [28a]     54%
2  COc1ccc(-c2cc(C(=O)Nc3cc(-c4c(-c5ccc(F)cc5)noc4C(C)C)ccn3)n(C)c2)c(OC)c1 [28b]     79%

###

molecular target: human CK1δ transcription variant 1 (Homo sapiens); construct: made in house; own knowledge; assay: in-vitro kinase assay CK1δ; type: biochemical; details: 10 µM compound, 10 µM ATP, mean ± SD, n = 3; read-out: CK1δ Residual Activity [%] at 10 µM ± SD
Observed property: remaining activity at 10 µM (%)

> print(dat)
                                   compound  recorded.number
1  COc1ccc(-c2cc(C(=O)Nc3cc(-c4c(-c5ccc(F)cc5)noc4C(C)C)ccn3)n(C[C@H]3NC[C@H](O)[C@@H]3O)c2)c(OC)c1 [29f]              2.8
2  COc1ccc(-c2cc(C(=O)Nc3cc(-c4c(-c5ccc(F)cc5)noc4C(C)C)ccn3)n(CC3NCC(O)C3O)c2)cc1 (centres unmarked) [29d]              2.9
3  COc1ccc(-c2cc(C(=O)Nc3cc(-c4c(-c5ccc(F)cc5)noc4C(C)C)ccn3)n(C)c2)cc1 [28a]               48
4  COc1ccc(-c2cc(C(=O)Nc3cc(-c4c(-c5ccc(F)cc5)noc4C(C)C)ccn3)n(C)c2)c(OC)c1 [28b]               48
5  CC(C)c1onc(-c2ccc(F)cc2)c1-c1ccnc(NC(=O)c2cccn2C[C@H]2NC[C@H](O)[C@@H]2O)c1 [29c]              7.7
